Give measured Reactivity (OD492) for each item. Keep answers brief.
target: biotinylated HCV core peptide 141-161 (Peptide 2) (HCV-1); assay: EIA, captured mAb
Answers are plain numbers, in OD.

Worked examples follow.
HCV 208B-327 (antibody, V domains shown) VH: EVQLVESGGGLVKPGGSLKLSCAASGFTFSDSYMYWVRQTPDQRLEWVATISDGGSYTFYPDSVKGRFTISRDNAQNNLYLQMSSLKSEDTAMYYCASPHAGYFGWFAYWGRGTLVTVSA VL: DIVMTQAAFSNPVTPGTSVSISCRSSKSLLHSNGITYLYWYLQKPGQSPQLLIYQMSKIASGVPDRFRSSGSGTDFTLRISRVEAADVGVYYCAQNLELPWTFGGGTKLEIKR	0.05
HCV 208A-557 (antibody, V domains shown) VH: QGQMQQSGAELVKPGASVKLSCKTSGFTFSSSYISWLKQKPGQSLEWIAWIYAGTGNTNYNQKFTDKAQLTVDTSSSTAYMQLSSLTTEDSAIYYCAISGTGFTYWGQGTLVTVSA VL: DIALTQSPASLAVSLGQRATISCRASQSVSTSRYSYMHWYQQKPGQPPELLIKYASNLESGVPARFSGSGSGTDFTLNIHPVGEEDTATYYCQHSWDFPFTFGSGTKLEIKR	2.41

Q: I have this binder here, HCV 208A-126 (antibody, V domains shown) VH: QLQQSGPVLVKPGASVMISCKTSGYTFTENAMHWVKQSHGKSLEWIGGVNPNNGDTIFNQKFKGKATLTVDKSSNTAFTELRSLPSEESTVYYCVRRGLDFFDYWGQGTSVTVSS VL: DIVLTQSPASLAVSLGQRATISCRASQSVSTSRYSYMHWYQQKPGQPPKLLIKYASNLESGVPARFSGSGSGTDFTLNIHPVAEEDTAAYYCQHSWEFPFTFGSGTKLEIKR , and I need its recorded Reactivity (OD492).
Ans: 2.08
